molecular target: Axl (UniProt P30530); assay: ELISA, 1:9 dilution
Sequence (P30530 26-451 limits assumed): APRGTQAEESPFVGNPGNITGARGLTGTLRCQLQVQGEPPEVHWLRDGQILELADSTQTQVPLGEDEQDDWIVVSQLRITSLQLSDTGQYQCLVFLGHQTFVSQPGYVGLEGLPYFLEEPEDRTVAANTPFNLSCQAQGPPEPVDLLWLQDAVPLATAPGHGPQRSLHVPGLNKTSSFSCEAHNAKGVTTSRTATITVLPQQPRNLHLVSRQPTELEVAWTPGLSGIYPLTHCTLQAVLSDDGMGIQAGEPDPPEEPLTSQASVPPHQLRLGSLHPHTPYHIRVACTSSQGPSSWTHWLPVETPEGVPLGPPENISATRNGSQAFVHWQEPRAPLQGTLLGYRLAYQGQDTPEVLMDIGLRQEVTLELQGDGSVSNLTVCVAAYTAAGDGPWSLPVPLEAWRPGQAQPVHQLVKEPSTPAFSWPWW
METRIC NAME: Affinity ELISA CPE mutant ratio (1:9, pH 6.0/7.4)

# BINDER, RECORDED RESULT
measured = [
    ("HC-A106Y (antibody, V domains shown) VH: EVQLVQSGAEVKKPGATVKISCKVSGYSFTGHTMNWIRQPPGKGLEWIGLIKPSNGGTSYNQKFKGRVTISADKSISTAYLQWSSLKASDTAMYYCAHGHYESYFYMDYWGQGTLVTVSS VL: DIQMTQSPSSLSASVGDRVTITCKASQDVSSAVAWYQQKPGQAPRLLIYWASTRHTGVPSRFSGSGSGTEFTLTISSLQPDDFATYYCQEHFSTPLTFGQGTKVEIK", 3.06),
    ("HC-E102Y (antibody, V domains shown) VH: EVQLVQSGAEVKKPGATVKISCKVSGYSFTGHTMNWIRQPPGKGLEWIGLIKPSNGGTSYNQKFKGRVTISADKSISTAYLQWSSLKASDTAMYYCAHGHYYSYFAMDYWGQGTLVTVSS VL: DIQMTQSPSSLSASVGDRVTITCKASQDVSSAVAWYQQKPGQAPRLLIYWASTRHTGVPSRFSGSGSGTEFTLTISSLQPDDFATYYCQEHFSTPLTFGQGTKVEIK", 1.99),
    ("HC-E102G (antibody, V domains shown) VH: EVQLVQSGAEVKKPGATVKISCKVSGYSFTGHTMNWIRQPPGKGLEWIGLIKPSNGGTSYNQKFKGRVTISADKSISTAYLQWSSLKASDTAMYYCAHGHYGSYFAMDYWGQGTLVTVSS VL: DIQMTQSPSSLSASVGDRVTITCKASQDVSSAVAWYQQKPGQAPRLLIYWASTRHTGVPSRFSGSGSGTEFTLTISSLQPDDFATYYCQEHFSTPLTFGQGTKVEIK", 2.68),
    ("HC-E102R (antibody, V domains shown) VH: EVQLVQSGAEVKKPGATVKISCKVSGYSFTGHTMNWIRQPPGKGLEWIGLIKPSNGGTSYNQKFKGRVTISADKSISTAYLQWSSLKASDTAMYYCAHGHYRSYFAMDYWGQGTLVTVSS VL: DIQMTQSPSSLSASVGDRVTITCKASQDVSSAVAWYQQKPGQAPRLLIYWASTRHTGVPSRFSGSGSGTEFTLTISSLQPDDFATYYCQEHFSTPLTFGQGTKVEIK", 3.42),
    ("HC-H100P (antibody, V domains shown) VH: EVQLVQSGAEVKKPGATVKISCKVSGYSFTGHTMNWIRQPPGKGLEWIGLIKPSNGGTSYNQKFKGRVTISADKSISTAYLQWSSLKASDTAMYYCAHGPYESYFAMDYWGQGTLVTVSS VL: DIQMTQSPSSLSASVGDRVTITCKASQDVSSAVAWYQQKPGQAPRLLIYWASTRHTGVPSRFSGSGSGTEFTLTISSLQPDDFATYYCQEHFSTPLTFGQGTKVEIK", 1.18),
    ("HC-E102A (antibody, V domains shown) VH: EVQLVQSGAEVKKPGATVKISCKVSGYSFTGHTMNWIRQPPGKGLEWIGLIKPSNGGTSYNQKFKGRVTISADKSISTAYLQWSSLKASDTAMYYCAHGHYASYFAMDYWGQGTLVTVSS VL: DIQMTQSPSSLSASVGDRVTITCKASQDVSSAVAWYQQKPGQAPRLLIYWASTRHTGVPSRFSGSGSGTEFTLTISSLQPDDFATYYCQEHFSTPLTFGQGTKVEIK", 1.69),
    ("LC-H091F (antibody, V domains shown) VH: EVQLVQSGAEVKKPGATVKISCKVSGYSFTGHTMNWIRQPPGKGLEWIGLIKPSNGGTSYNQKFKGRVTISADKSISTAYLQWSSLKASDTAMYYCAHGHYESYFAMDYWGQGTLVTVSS VL: DIQMTQSPSSLSASVGDRVTITCKASQDVSSAVAWYQQKPGQAPRLLIYWASTRHTGVPSRFSGSGSGTEFTLTISSLQPDDFATYYCQEFFSTPLTFGQGTKVEIK", 2.12),
    ("HC-E102D (antibody, V domains shown) VH: EVQLVQSGAEVKKPGATVKISCKVSGYSFTGHTMNWIRQPPGKGLEWIGLIKPSNGGTSYNQKFKGRVTISADKSISTAYLQWSSLKASDTAMYYCAHGHYDSYFAMDYWGQGTLVTVSS VL: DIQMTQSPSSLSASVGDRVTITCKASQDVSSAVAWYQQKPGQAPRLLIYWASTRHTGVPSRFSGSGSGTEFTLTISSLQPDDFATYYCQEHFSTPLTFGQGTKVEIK", 2.85),
    ("LC-F092C (antibody, V domains shown) VH: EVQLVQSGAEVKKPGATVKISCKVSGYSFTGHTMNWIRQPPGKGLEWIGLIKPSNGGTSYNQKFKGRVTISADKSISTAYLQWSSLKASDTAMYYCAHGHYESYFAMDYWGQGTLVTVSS VL: DIQMTQSPSSLSASVGDRVTITCKASQDVSSAVAWYQQKPGQAPRLLIYWASTRHTGVPSRFSGSGSGTEFTLTISSLQPDDFATYYCQEHCSTPLTFGQGTKVEIK", 4.58),
    ("LC-P095D (antibody, V domains shown) VH: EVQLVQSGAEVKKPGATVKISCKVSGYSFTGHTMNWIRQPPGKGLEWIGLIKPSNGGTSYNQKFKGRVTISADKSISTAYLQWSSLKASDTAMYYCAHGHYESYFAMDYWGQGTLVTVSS VL: DIQMTQSPSSLSASVGDRVTITCKASQDVSSAVAWYQQKPGQAPRLLIYWASTRHTGVPSRFSGSGSGTEFTLTISSLQPDDFATYYCQEHFSTDLTFGQGTKVEIK", 2.89),
]

Each recorded value in this set is attributed to patent US20250276075A1.
